Tested on: isolation-induced aggressiveness in mice
Experiment: Inhibition of isolation-induced aggressiveness in mice (anti-aggressive and anxiety-relieving activity)
Format: in vivo
Conditions: Mus musculus, 1 h; oral, isolated mice, 60 minutes after application; 50% reduction of aggressive behavior; read-out: Inhibition of isolation-induced aggressiveness in mice ED50 (60')
Cut-off 5 mg/kg on ED50: below means yes (1), at or above means no (0).

molecule="CNC1=Nc2ccc(Cl)cc2C(c2ccccc2)=[N+]([O-])C1 [comparison, reference compound]" cat="no (0)"
molecule="CN1C(=CC(N)=O)CN=C(c2ccccc2Cl)c2cc(Br)ccc21 [Compound No. 5]" cat="yes (1)"
molecule="CN1C(=CC(N)=O)CN=C(c2ccccc2Cl)c2cc(Cl)ccc21 [Compound No. 2]" cat="yes (1)"
molecule="CN1C(=CC(N)=O)CN=C(c2ccccc2F)c2cc(Br)ccc21 [Compound No. 6]" cat="no (0)"
molecule="CN1C(=CC(N)=O)CN=C(c2ccccc2F)c2cc(Cl)ccc21 [Compound No. 3]" cat="yes (1)"
molecule="CN1C(=CC(N)=O)CN=C(c2ccccc2)c2cc(Cl)ccc21 [Compound No. 1]" cat="no (0)"
molecule="CN1C(=CC(N)=O)CN=C(c2ccccc2C(F)(F)F)c2cc(Cl)ccc21 [Compound No. 4]" cat="no (0)"

---

Assay: Acute 7-day toxicity in mice (LD50)
Conditions: mouse, in vivo, po, single dose per os, white NMRI-mice not fed, read-out: LD50 p.o.
Protocol: The acute 7-day-toxicity in white NMRI-mice is determined after administration of a single dose of the test compound per os or i.p. to the mice which had not been fed. The calculation of the LD50 is carried out by probitanalysis by means of electronic data processing (see L. Cavelli-Sforza, Gustav Fischer-Verlag, Stuttgart, (1964), Grundbegriffe der Biometrie, p. 153).
Metric Name: LD50 at 168 h

compound=CN1C(=CC(N)=O)CN=C(c2ccccc2Cl)c2cc(Cl)ccc21 result="> 1000 mg/kg"
compound=CN1C(=CC(N)=O)CN=C(c2ccccc2F)c2cc(Br)ccc21 result="> 1470 mg/kg"
compound=CN1C(=CC(N)=O)CN=C(c2ccccc2Cl)c2cc(Br)ccc21 result="> 1470 mg/kg"
compound=CN1C(=CC(N)=O)CN=C(c2ccccc2Cl)c2cc([N+](=O)[O-])ccc21 result="> 1470 mg/kg"
compound=CN1C(=CC(N)=O)CN=C(c2ccccc2)c2cc(Cl)ccc21 result="> 1470 mg/kg"
compound="CNC1=Nc2ccc(Cl)cc2C(c2ccccc2)=[N+]([O-])C1 [comparison, reference compound]" result="903 mg/kg"
compound=CN1C(=CC(N)=O)CN=C(c2ccccc2C(F)(F)F)c2cc(Cl)ccc21 result="> 1470 mg/kg"
compound=CN1C(=CC(N)=O)CN=C(c2ccccc2F)c2cc(Cl)ccc21 result="> 1470 mg/kg"
